Each recorded value in this set is attributed to ChEMBL document CHEMBL4665881.

molecular target: ALK tyrosine kinase receptor (Homo sapiens, UniProt Q9UM73)
Sequence (Q9UM73 whole entry): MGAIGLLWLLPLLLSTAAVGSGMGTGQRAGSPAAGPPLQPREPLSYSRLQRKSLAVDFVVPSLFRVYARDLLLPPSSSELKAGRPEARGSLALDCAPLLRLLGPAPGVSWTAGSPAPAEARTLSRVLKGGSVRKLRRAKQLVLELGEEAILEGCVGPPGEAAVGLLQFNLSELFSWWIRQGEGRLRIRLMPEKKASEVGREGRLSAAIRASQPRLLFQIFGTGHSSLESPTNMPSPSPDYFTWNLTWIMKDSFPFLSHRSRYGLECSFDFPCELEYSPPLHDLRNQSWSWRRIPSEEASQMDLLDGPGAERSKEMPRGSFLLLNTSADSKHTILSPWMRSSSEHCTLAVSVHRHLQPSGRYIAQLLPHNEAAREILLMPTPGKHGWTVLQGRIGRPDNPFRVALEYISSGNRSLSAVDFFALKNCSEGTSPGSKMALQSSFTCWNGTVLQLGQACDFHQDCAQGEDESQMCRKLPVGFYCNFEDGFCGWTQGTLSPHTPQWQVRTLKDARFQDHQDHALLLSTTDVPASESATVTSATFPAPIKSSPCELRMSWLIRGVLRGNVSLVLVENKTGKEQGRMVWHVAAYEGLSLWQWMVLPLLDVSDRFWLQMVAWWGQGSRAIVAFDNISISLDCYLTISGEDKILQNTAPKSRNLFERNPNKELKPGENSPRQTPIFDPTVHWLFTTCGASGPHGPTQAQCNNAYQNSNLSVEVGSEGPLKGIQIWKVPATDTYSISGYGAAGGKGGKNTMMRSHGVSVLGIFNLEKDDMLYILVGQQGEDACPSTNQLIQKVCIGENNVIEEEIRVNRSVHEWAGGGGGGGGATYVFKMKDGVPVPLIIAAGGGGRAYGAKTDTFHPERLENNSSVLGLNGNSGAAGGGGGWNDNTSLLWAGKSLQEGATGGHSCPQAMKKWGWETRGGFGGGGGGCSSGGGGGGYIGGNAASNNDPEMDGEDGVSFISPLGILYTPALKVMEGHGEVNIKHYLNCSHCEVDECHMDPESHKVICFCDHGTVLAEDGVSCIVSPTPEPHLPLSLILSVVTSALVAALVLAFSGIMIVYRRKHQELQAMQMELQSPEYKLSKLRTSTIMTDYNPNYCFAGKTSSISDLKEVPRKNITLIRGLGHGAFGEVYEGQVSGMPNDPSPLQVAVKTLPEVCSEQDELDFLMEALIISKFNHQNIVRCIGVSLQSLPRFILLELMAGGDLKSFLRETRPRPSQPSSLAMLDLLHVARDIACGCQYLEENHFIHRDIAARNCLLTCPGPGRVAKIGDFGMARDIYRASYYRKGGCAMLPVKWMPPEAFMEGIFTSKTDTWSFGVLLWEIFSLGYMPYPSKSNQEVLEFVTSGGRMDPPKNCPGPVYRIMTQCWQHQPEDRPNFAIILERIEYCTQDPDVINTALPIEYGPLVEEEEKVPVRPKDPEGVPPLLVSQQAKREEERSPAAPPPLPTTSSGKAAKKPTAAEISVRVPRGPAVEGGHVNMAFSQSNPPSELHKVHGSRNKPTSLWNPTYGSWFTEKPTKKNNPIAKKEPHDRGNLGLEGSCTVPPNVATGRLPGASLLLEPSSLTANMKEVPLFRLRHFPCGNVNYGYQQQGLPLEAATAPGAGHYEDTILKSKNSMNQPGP
Observed Property: IC50 (nM)
Could you give me the number in nM? Just the number is fine.

CNC(=O)c1ccccc1Nc1nc(Nc2ccc(-n3cccc3C(=O)NCCO)cc2OC)ncc1Cl 9.6

Query compound follows.
For the compound CCN1CCN(C(=O)c2cccn2-c2ccc(Nc3ncc(Cl)c(Nc4ccccc4NS(C)(=O)=O)n3)c(OC)c2)CC1 , what IC50 is on record?
8.5

###

Form field: pIC50 (one value per entry).
molecular target: ALK tyrosine kinase receptor (Homo sapiens, UniProt Q9UM73, L1196M); assay: Inhibition of ALK L1196M (unknown origin) incubated for 1 hr
Sequence (Q9UM73 19-1620 L1196M limits assumed): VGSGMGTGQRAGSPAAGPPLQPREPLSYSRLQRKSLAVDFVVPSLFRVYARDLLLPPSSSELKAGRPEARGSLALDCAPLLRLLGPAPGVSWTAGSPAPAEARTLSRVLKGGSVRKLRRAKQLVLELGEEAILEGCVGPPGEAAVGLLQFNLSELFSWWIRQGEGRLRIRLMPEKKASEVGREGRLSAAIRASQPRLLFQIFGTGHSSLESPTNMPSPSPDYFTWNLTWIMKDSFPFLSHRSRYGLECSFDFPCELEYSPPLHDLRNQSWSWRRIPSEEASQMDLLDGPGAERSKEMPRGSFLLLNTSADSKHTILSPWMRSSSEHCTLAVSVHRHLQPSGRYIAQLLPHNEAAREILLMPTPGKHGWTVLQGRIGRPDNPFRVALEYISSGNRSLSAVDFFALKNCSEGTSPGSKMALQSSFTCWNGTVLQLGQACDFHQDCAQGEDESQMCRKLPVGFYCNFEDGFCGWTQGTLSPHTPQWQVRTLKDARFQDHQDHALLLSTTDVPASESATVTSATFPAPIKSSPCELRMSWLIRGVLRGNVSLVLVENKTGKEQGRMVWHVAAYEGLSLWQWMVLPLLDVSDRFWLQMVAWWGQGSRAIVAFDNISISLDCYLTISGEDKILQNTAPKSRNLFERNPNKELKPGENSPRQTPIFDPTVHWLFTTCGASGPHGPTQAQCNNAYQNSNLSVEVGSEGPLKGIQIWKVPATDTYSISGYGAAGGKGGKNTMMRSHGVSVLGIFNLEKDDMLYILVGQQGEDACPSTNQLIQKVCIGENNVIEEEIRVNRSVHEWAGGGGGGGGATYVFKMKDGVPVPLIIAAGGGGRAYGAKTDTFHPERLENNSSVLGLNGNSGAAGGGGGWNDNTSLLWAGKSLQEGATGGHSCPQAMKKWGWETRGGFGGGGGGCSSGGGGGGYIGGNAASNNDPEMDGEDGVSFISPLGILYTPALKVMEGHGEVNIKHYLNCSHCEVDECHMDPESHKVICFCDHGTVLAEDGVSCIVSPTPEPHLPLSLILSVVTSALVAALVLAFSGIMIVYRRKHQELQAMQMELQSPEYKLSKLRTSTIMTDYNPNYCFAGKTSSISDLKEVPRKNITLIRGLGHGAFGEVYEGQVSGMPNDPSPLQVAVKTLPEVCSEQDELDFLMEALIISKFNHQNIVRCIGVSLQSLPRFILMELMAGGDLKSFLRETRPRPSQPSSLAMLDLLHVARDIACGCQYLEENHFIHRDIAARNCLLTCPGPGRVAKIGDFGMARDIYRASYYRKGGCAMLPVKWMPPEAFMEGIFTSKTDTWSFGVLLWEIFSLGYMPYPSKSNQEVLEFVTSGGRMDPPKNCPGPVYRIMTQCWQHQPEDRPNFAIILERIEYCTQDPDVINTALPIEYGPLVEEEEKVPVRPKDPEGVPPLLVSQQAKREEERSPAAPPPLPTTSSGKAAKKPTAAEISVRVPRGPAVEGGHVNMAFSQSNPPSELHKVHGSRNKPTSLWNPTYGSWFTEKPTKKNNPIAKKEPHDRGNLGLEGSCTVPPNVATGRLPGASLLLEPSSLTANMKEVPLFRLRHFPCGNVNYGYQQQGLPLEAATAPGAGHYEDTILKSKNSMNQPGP
Quick note: pIC50 means taking -log10 of the concentration in moles per liter.

Past entries and their recorded results:
CNC(=O)c1ccccc1Nc1nc(Nc2ccc(-n3cccc3C(=O)NCCO)cc2OC)ncc1Cl 7.87
CCN1CCN(C(=O)c2cccn2-c2ccc(Nc3ncc(Cl)c(Nc4ccccc4NS(C)(=O)=O)n3)c(OC)c2)CC1 7.93
COc1cc(-n2cccc2C(=O)NCCO)ccc1Nc1ncc(Cl)c(Nc2ccccc2NS(C)(=O)=O)n1 8.51

# input for lookup
May I ask what pIC50 has been recorded for COc1cc(-n2cccc2C(=O)N2CCSCC2)ccc1Nc1ncc(Cl)c(Nc2ccccc2NS(C)(=O)=O)n1 ?
8.08

###

tested on: A549; assay: Antiproliferative activity against human A549 cells assessed as reduction in cell viability incubated for 72 hr by MTT assay; conditions: A549, 72 h
Listed next: entries and their corresponding IC50.
Record the value in µM, omitting the unit from your answer.

CCN(CC)C(=O)c1cccn1-c1ccc(Nc2ncc(Cl)c(Nc3ccccc3C(=O)NC)n2)c(OC)c1 3.49
COc1cc(-n2cccc2C(=O)O)ccc1Nc1ncc(Cl)c(Nc2ccccc2NS(C)(=O)=O)n1 1.06
COC(=O)c1cccn1-c1ccc(Nc2ncc(Cl)c(Nc3ccccc3NS(C)(=O)=O)n2)c(OC)c1 2.51
COc1cc(-n2cccc2C(=O)N2CCCC2)ccc1Nc1ncc(Cl)c(Nc2ccccc2NS(C)(=O)=O)n1 4.58
COc1cc(-n2cccc2C(=O)N2CCSCC2)ccc1Nc1ncc(Cl)c(Nc2ccccc2NS(C)(=O)=O)n1 1.47

Tell me reported IC50 for CNC(=O)c1ccccc1Nc1nc(Nc2ccc(-n3cccc3C(=O)OC)cc2OC)ncc1Cl , tested with A549.
8.51

Give the reported IC50 for CNC(=O)c1ccccc1Nc1nc(Nc2ccc(-n3cccc3C(=O)N3CC(O)C3)cc2OC)ncc1Cl (system: A549).
4.13

Test system A549; read-out IC50; what value for COc1cc(-n2cccc2C(=O)N2CCOCC2)ccc1Nc1ncc(Cl)c(Nc2ccccc2NS(C)(=O)=O)n1 ?
1.77

Hello, I am looking for reported IC50 with A549 for COc1cc(-n2cccc2C(=O)N2CCC(C)CC2)ccc1Nc1ncc(Cl)c(Nc2ccccc2NS(C)(=O)=O)n1 . Could you help?
2.2

###

tested on: A549; assay: Antiproliferative activity against human A549 cells assessed as reduction in cell viability incubated for 72 hr by MTT assay; settings: A549, 72 h
Observed Property: IC50

The examples below pair each entry with its known result.
CNC(=O)c1ccccc1Nc1nc(Nc2ccc(-n3cccc3C(=O)N3CCN(C)CC3)cc2OC)ncc1Cl > 10 µM
CNC(=O)c1ccccc1Nc1nc(Nc2ccc(-n3cccc3C(=O)N3CCCCC3)cc2OC)ncc1Cl > 10 µM
CNC(=O)c1ccccc1Nc1nc(Nc2ccc(-n3cccc3C(=O)N3CCSCC3)cc2OC)ncc1Cl 2.18 µM
COc1cc(-n2cccc2C(=O)N(C)C)ccc1Nc1ncc(Cl)c(Nc2ccccc2NS(C)(=O)=O)n1 > 10 µM
CCN1CCN(C(=O)c2cccn2-c2ccc(Nc3ncc(Cl)c(Nc4ccccc4C(=O)NC)n3)c(OC)c2)CC1 1.57 µM
COc1cc(-n2cccc2C(=O)N2CC(O)C2)ccc1Nc1ncc(Cl)c(Nc2ccccc2NS(C)(=O)=O)n1 2.08 µM

Please give the measured IC50 for this molecule: CNC(=O)c1ccccc1Nc1nc(Nc2ccc(-n3cccc3C(=O)N(C)C)cc2OC)ncc1Cl
4.12 µM

Need IC50, item CCN(CC)C(=O)c1cccn1-c1ccc(Nc2ncc(Cl)c(Nc3ccccc3NS(C)(=O)=O)n2)c(OC)c1
0.97 µM
